# experimental system: human somatostatin receptor subtype 2 (Homo sapiens)
# Construct: expressed in transfected cells
# Sequence (P30874 whole entry): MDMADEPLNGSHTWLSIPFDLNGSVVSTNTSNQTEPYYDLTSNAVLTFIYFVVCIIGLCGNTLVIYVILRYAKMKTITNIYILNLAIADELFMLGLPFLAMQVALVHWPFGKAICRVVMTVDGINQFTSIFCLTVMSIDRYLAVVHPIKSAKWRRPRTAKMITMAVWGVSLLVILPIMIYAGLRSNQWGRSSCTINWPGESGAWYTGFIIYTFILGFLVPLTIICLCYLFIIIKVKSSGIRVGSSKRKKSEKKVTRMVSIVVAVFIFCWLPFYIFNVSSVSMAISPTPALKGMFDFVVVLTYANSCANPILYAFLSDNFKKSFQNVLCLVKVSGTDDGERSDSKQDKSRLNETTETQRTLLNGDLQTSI
# test: Functional assay for SSTR2 agonists (HTRF cAMP)
# Assay type: cell-based
# test context: CHO-K1 cells stably expressing human SST2; NKH477-stimulated cAMP; 20 min at 37 C; read-out: hSST2 cAMP Avg EC50
# Text: General overview: All five SSTR subtypes are Gi coupled G-protein coupled receptors (GPCRs) that lead to decreases in intracellular cyclic AMP (cAMP) when activated by an agonist. Therefore, measurement of intracellular cAMP levels can be used to assess whether compounds of the invention are agonists of SSTR subtypes (John Kelly, Troy Stevens, W. Joseph Thompson, and Roland Seifert, Current Protocols in Pharmacology. 2005, 2.2.1-2.2). One example of an intracellular cAMP assay is described below. […]
pEC50: −log10 of the molar value. *1 amine or outer side, *2 acyl side, *3 side chain or, on linkers, in order; H or OH if unused. Where a SMILES comes first, the peptide text is derived from it. [ ]: non-standard residue; d: D form. The star is where a group is joined. X1 = Cc1cc(F)cc(-c2cnc(*)c(-c3nc4ccc(Cl)cc4[nH]3)c2N2CCC(N)CC2)c1; Dolaproine = CO[C@@H]([C@@H]1CCCN1)[C@@H](C)C(=O)O; Dil = CC[C@H](C)[C@H](NC)[C@@H](CC(=O)O)OC; PABC = O=C(OCc1ccc(N[*:1])cc1)[*:2]; X2 = C[C@@H](N*)[C@@H](O)c1ccccc1; Cit = NC(=O)NCCC[C@H](N)C(=O)O; PEG4 = NCCOCCOCCOCCOCCC(=O)O; NMeV = CN[C@H](C(=O)O)C(C)C; βAla = NCCC(=O)O
List of pEC50 values.
observed property: pEC50

{"columns": ["compound", "numeric result"],
 "data": [
  ["CC[C@H](C)[C@@H]([C@@H](CC(=O)N1CCC[C@H]1[C@H](OC)[C@@H](C)C(=O)N[C@H](C)[C@@H](O)c1ccccc1)OC)N(C)C(=O)[C@@H](NC(=O)[C@H](C(C)C)N(C)C(=O)OCc1ccc(NC(=O)[C@H](CCCNC(N)=O)NC(=O)[C@@H](NC(=O)[C@H](CCC(=O)O)NC(=O)CCOCCC(=O)NCCNc2ncc(-c3cc(C)cc(F)c3)c(N3CC[C@H]4NCCC[C@@H]4C3)c2-c2nc3ccc(Cl)cc3[nH]2)C(C)C)cc1C(=O)NCCN)C(C)C", 6.74],
  ["CC[C@H](C)[C@@H]([C@@H](CC(=O)N1CCC[C@H]1[C@H](OC)[C@@H](C)C(=O)N[C@H](C)[C@@H](O)c1ccccc1)OC)N(C)C(=O)[C@@H](NC(=O)[C@H](C(C)C)N(C)C(=O)OCc1ccc(NC(=O)[C@H](CCCNC(N)=O)NC(=O)[C@@H](NC(=O)CCOCCC(=O)NCCNc2ncc(-c3cc(C)cc(F)c3)c(N3CCC(N)CC3)c2-c2nc3ccc(Cl)cc3[nH]2)C(C)C)cc1C(=O)O)C(C)C", 9.59],
  ["CC[C@H](C)[C@@H]([C@@H](CC(=O)N1CCC[C@H]1[C@H](OC)[C@@H](C)C(=O)N[C@H](C)[C@@H](O)c1ccccc1)OC)N(C)C(=O)[C@@H](NC(=O)[C@H](C(C)C)N(C)C(=O)OCc1ccc(NC(=O)[C@H](CCCNC(N)=O)NC(=O)[C@@H](NC(=O)[C@H](Cc2c[nH]c3ccccc23)NC(=O)CCOCCC(=O)NCCNc2ncc(-c3cc(C)cc(F)c3)c(N3CCC(N)CC3)c2-c2nc3ccc(Cl)cc3[nH]2)C(C)C)cc1C(=O)NCCN)C(C)C", 9.14],
  ["CC[C@H](C)[C@@H]([C@@H](CC(=O)N1CCC[C@H]1[C@H](OC)[C@@H](C)C(=O)N[C@H](C)[C@@H](O)c1ccccc1)OC)N(C)C(=O)[C@@H](NC(=O)[C@H](C(C)C)N(C)C(=O)OCc1ccc(NC(=O)[C@H](CCCNC(N)=O)NC(=O)[C@@H](NC(=O)[C@H](CCC(=O)O)NC(=O)CCOCCC(=O)NCCNc2ncc(-c3cc(C)cc(F)c3)c(N3CCC(N)CC3)c2-c2nc3ccc(Cl)cc3[nH]2)C(C)C)c(C(F)(F)F)c1)C(C)C", 9.68],
  ["CC[C@H](C)[C@@H]([C@@H](CC(=O)N1CCC[C@H]1[C@H](OC)[C@@H](C)C(=O)N[C@H](C)[C@@H](O)c1ccccc1)OC)N(C)C(=O)[C@@H](NC(=O)[C@H](C(C)C)N(C)C(=O)OCc1ccc(NC(=O)[C@H](C)NC(=O)[C@@H](NC(=O)CCOCCC(=O)N(C)CC(=O)NCCNc2ncc(-c3cc(C)cc(F)c3)c(N3CCC(N)CC3)c2-c2nc3ccc(Cl)cc3[nH]2)C(C)C)c(O[C@@H]2O[C@H](C(=O)NCC(=O)O)[C@@H](O)[C@H](O)[C@H]2O)c1)C(C)C", 10.00],
  ["CC[C@H](C)[C@@H]([C@@H](CC(=O)N1CCC[C@H]1[C@H](OC)[C@@H](C)C(=O)N[C@H](C)[C@@H](O)c1ccccc1)OC)N(C)C(=O)[C@@H](NC(=O)[C@H](C(C)C)N(C)C(=O)OCc1ccc(NC(=O)[C@H](C)NC(=O)[C@@H](NC(=O)CCOCCC(=O)NCCNc2ncc(-c3cc(C)cc(F)c3)c(N3CCC(N)CC3)c2-c2nc3c(F)c(F)ccc3[nH]2)C(C)C)c(O[C@@H]2O[C@H](C(=O)O)[C@@H](O)[C@H](O)[C@H]2O)c1)C(C)C", 8.96],
  ["CC[C@H](C)[C@@H]([C@@H](CC(=O)N1CCC[C@H]1[C@H](OC)[C@@H](C)C(=O)N[C@H](C)[C@@H](O)c1ccccc1)OC)N(C)C(=O)[C@@H](NC(=O)[C@H](C(C)C)N(C)C(=O)OCc1ccc(NC(=O)[C@H](CCCNC(N)=O)NC(=O)[C@@H](NC(=O)CCOCCOCCOCCOCCNC(=O)CCNc2ncc(-c3cc(C)cc(F)c3)c(N3CCC(N)CC3)c2-c2nc3ccc(Cl)cc3[nH]2)C(C)C)cc1)C(C)C [Compound 196] ({X1-βAla-PEG4}-V[Cit][PABC][NMeV]V[Dil][Dolaproine]-X2)", 9.54],
  ["CC[C@H](C)[C@@H]([C@@H](CC(=O)N1CCC[C@H]1[C@H](OC)[C@@H](C)C(=O)N[C@H](C)[C@@H](O)c1ccccc1)OC)N(C)C(=O)[C@@H](NC(=O)[C@H](C(C)C)N(C)C(=O)OCc1ccc(NC(=O)[C@H](C)NC(=O)[C@@H](NC(=O)C2(C(=O)NCCOCCC(=O)NCCNc3ncc(-c4cc(C)cc(F)c4)c(N4CCC(N)CC4)c3-c3nc4ccc(Cl)cc4[nH]3)CCC2)C(C)C)cc1C(=O)NCCN)C(C)C", 9.59],
  ["CC[C@H](C)[C@@H]([C@@H](CC(=O)N1CCC[C@H]1[C@H](OC)[C@@H](C)C(=O)N[C@H](C)[C@@H](O)c1ccccc1)OC)N(C)C(=O)[C@@H](NC(=O)[C@H](C(C)C)N(C)C(=O)OCc1ccc(NC(=O)[C@H](CCCNC(N)=O)NC(=O)[C@@H](NC(=O)CCOCCC(=O)NCCNc2ncc(-c3cc(C)cc(F)c3)c(N3CCC(N)CC3)c2-c2nc3ccc(Cl)cc3[nH]2)C(C)C)c(O[C@@H]2O[C@H](C(=O)NCCC(=O)N[C@@H](CCCCNC(=O)CCCCc3ccc(I)cc3)C(=O)O)[C@@H](O)[C@H](O)[C@H]2O)c1)C(C)C", 9.60]
]}
